organism: Rattus norvegicus; assay: Open TG-GATES - Regimen: Single; format: toxicity, organism-based, Sprague-Dawley; parameters: regimen Single, gender Male, age 6 weeks; conditions: in vivo, po, 0 mg/kg, 9 h, tissue Kidney, route gavage, dose level Control
Listing of entries alongside the reported KIDNEY_R.
Please reply with the bare figure in g and do not write the unit itself.

Query: Fill in the blank: the reported KIDNEY_R of CN1C(=O)OC(C)(C)C1=O is ____.
Result: 0.9

Query: Fill in the blank: the reported KIDNEY_R of CCSCC[C@H](N)C(=O)O is ____.
Result: 1

Query: Fill in the blank: the reported KIDNEY_R of C[C@]12CCC(=O)C=C1CC[C@@H]1[C@@H]2CC[C@@]2(C)[C@H]1CC[C@]2(C)O is ____.
Result: 0.9

Query: Fill in the blank: the reported KIDNEY_R of O=C(N[C@H](CO)[C@H](O)c1ccc([N+](=O)[O-])cc1)C(Cl)Cl is ____.
Result: 0.9

Query: Fill in the blank: the reported KIDNEY_R of C#C[C@]1(O)CC[C@H]2[C@@H]3CCc4cc(O)ccc4[C@H]3CC[C@@]21C is ____.
Result: 0.9

More entries:
Query: Fill in the blank: the reported KIDNEY_R of CCc1oc2ccccc2c1C(=O)c1cc(I)c(O)c(I)c1 is ____.
Result: 1

Query: Fill in the blank: the reported KIDNEY_R of CC(C)C(=O)Nc1ccc([N+](=O)[O-])c(C(F)(F)F)c1 [FLUTAMIDE] is ____.
Result: 1

Query: Fill in the blank: the reported KIDNEY_R of CCC(C)(C)C(=O)O[C@H]1C[C@@H](C)C=C2C=C[C@H](C)[C@H](CC[C@@H]3C[C@@H](O)CC(=O)O3)[C@H]21 is ____.
Result: 0.9

Query: Fill in the blank: the reported KIDNEY_R of CC(=N)S [THIOACETAMIDE] is ____.
Result: 0.9

###

species on record: Rattus norvegicus; assay: Open TG-GATES - Regimen: Daily Repeat; assay type: toxicity, organism-based, Sprague-Dawley; set-up: regimen Daily Repeat, gender Male, age 6 weeks; conditions: in vivo, po, 1000 mg/kg, […], tissue Blood, route gavage, dose level High, time 28 day
Property Measured: RBC
Answer with the value and then the unit.

Here's what some known entries look like.
Query: Fill in the blank: the reported RBC of CCN1CCCC1CNC(=O)c1cc(S(N)(=O)=O)ccc1OC (centres undefined) [SULPIRIDE] is ____.
Result: 818.8 x10_4/ul

Query: Fill in the blank: the reported RBC of O=C(N[C@H](CO)[C@H](O)c1ccc([N+](=O)[O-])cc1)C(Cl)Cl [CHLORAMPHENICOL] is ____.
Result: 746.4 x10_4/ul

Query: Fill in the blank: the reported RBC of CC(C)(S)[C@@H](N)C(=O)O [PENICILLAMINE] is ____.
Result: 749.2 x10_4/ul

More entries:
Query: Fill in the blank: the reported RBC of O=C(O)c1cccnc1 [NIACIN] is ____.
Result: 747.2 x10_4/ul

###

organism: Rattus norvegicus; test: Open TG-GATES - Regimen: Single; assay type: toxicity, organism-based, Sprague-Dawley; design: regimen Single, gender Male, age 6 weeks; details: in vivo, po, 0 mg/kg, 24 h, tissue Plasma, route gavage, dose level Control
Listing of entries alongside the reported Na.
Answer with the value and then the unit.

Here's what some known entries look like.
Query: Fill in the blank: the reported Na of Oc1ncnc2[nH]ncc12 is ____.
Result: 138 meq/L

Query: Fill in the blank: the reported Na of C#C[C@]1(O)CC[C@H]2[C@@H]3CCc4cc(O)ccc4[C@H]3CC[C@@]21C is ____.
Result: 141 meq/L

Query: Fill in the blank: the reported Na of C[C@](N)(Cc1ccc(O)c(O)c1)C(=O)O is ____.
Result: 142 meq/L

Query: Fill in the blank: the reported Na of Nc1nc(N)c2nc(-c3ccccc3)c(N)nc2n1 is ____.
Result: 142.6 meq/L

Query: Fill in the blank: the reported Na of CC(C)C(=O)Nc1ccc([N+](=O)[O-])c(C(F)(F)F)c1 [FLUTAMIDE] is ____.
Result: 140.6 meq/L

Query: Fill in the blank: the reported Na of O=C(N[C@H](CO)[C@H](O)c1ccc([N+](=O)[O-])cc1)C(Cl)Cl is ____.
Result: 141.2 meq/L

Query: Fill in the blank: the reported Na of O=C(O)c1cccnc1 is ____.
Result: 140.4 meq/L

Query: Fill in the blank: the reported Na of CCc1oc2ccccc2c1C(=O)c1cc(I)c(O)c(I)c1 is ____.
Result: 141.8 meq/L

More entries:
Query: Fill in the blank: the reported Na of CN1C(=O)OC(C)(C)C1=O is ____.
Result: 142.8 meq/L

Query: Fill in the blank: the reported Na of C[C@]12CCC(=O)C=C1CC[C@@H]1[C@@H]2CC[C@@]2(C)[C@H]1CC[C@]2(C)O is ____.
Result: 140.8 meq/L

All figures here come from ChEMBL document CHEMBL3885861.
